protocol-description: Primary qHTS for inhibitors of nuclear receptor binding SET domain protein 2 (NSD2) in an RCH-ACV wild type WT cells (2C) (AID 1645877); also: nearly all actives have a fitted effect of over 70% in size; as to activity change, negative = cell killing: % is scaled to controls: 0 for no effect and ±100 for the full control effect
assay-conditions: RCH-ACV (leukaemia line) NSD2 WT (2C) viability, CellTiter-Glo, 72 h; series mostly up to 44.9 µM
Inconclusive results are not listed. Active and inactive are the calls of the source. Calls follow the shape of the dose curve; as a rule, active = well fitted inhibition curve with a large enough effect; inconclusive = small, poorly fitted or top-dose-only effect; inactive = no such curve, though single readings can be large or run the other way.
reported-property: activity change, negative = cell killing

>>> recorded_measurement("COc1ccc(C)c2sc(NC(=O)c3ccncc3)nc12")
"inactive"
>>> recorded_measurement("C/C=C/C=C/C=C/C(=O)O[C@@H]1C=C(CO)C(O)(C(=O)O)[C@@]2(C)CCCC(C)(C)[C@H]12 (stereo partly drawn)")
"inactive"
>>> recorded_measurement("COc1ccc(/C=C/C(=O)O[C@@H]2[C@@H](OC(C)=O)[C@@H](OC(C)=O)[C@H](O[C@H]3[C@@H]4C=CO[C@@H](O[C@@H]5O[C@H](CO)[C@@H](O)[C@H](O)[C@H]5O)[C@@H]4[C@@]4(CO)O[C@@H]34)O[C@H]2C)cc1O")
"inactive"

---

target: Luciferin 4-monooxygenase (Photinus pyralis) (UniProt P08659)
protocol-description: Primary firefly luciferase (FLuc) qHTS assay for identification of artifact compounds. (AID 1845220); also: nearly all actives have a fitted effect of over 60% in size;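 as to activity change, negative = inhibition: plate controls were DMSO vehicle for no effect and no enzyme for full effect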
assay-conditions: purified firefly luciferase, luminescence, 5 min; series mostly up to 54.1 µM
Active and inactive are the calls of the source. Calls follow the shape of the dose curve; as a rule, active = well fitted inhibition curve with a large enough effect; inconclusive = small, poorly fitted or top-dose-only effect; inactive = flat fitted curve, though single readings scatter.
reported-property: activity change, negative = inhibition

>>> recorded_measurement("CO[C@H]1C=C2C(CC[C@H](O[C@@H]3O[C@H](CO)[C@@H](O)[C@@H](O)[C@H]3O)C2(C)C)[C@]2(C)CC[C@]3(C)C([C@H](C)C(O)C(C=C(C)C)O[C@@H]4O[C@H](CO)[C@@H](O)[C@@H](O)[C@H]4O)CC[C@@]3(C)C12 (stereo partly drawn)")
"1.78% [at 11.6 µM] (inactive)"
>>> recorded_measurement("O=C(NCC(=O)N1CC[C@H](NC2CCC(O)(c3ccc(-c4ncccn4)cn3)CC2)C1)c1cccc(C(F)(F)F)c1 (stereo partly drawn)")
"inactive"
>>> recorded_measurement("COc1ccc(/C=C/C(=O)O[C@H]2[C@@H]3C=CO[C@@H](O[C@@H]4O[C@H](CO)[C@@H](O)[C@H](O)[C@H]4O)[C@@H]3[C@@]3(CO)O[C@@H]23)cc1O")
"inactive"
>>> recorded_measurement("CC1CCC2(O1)C(C)(C)CC(O[C@@H]1O[C@H](CO[C@@H]3OC[C@](O)(CO)[C@H]3O)[C@@H](O)[C@H](O)[C@H]1O)CC2(C)O (stereo partly drawn)")
"inactive"
>>> recorded_measurement("CC(=O)NC(C(=O)OC1CCC(C)(C)C2CC=C3C(=O)OCC3(O)C12C)C(C)C (stereo not drawn)")
"inactive"
>>> recorded_measurement("N[C@H]1C[C@H]1c1ccc(-c2cccc(O)c2)cc1")
"inactive"
>>> recorded_measurement("CCC(CC)n1ccc2c(C(=O)NCc3c(C)cc(C)[nH]c3=O)cc(C#N)cc21")
"inactive"

Moving on to the next compound.
Exercise: Suppose we examine the compound N#Cc1ccnc(N2C(=O)CC[C@H]2C(=O)N(c2cncc(F)c2)[C@H](C(=O)NC2CC(F)(F)C2)c2ccccc2Cl)c1 ; what activity change, negative = inhibition value has been reported?
Solution: inactive

---

protocol-description: Cell Viability - LYMP2-022 (AID 987);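 also: cells exposed to compound for 24 hr; nearly all actives have a fitted effect of over 55% in size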
assay-conditions: LYMP2-022 lymphoblastoid cell viability; series mostly up to 92.2 µM
Inconclusive results are not listed. The source made the active and inactive calls. The call rests on the fitted dose curve; in most records, active means well fitted cell-killing curve with a large enough effect; inconclusive means small, poorly fitted or top-dose-only effect; inactive means flat fitted curve, though single readings scatter.
Hi there, use one of these labels in your reply, thanks! 1.0 for active, 0.0 for inactive

Some entries whose results are on file:
>>> class("CC1=C2[C@@H]([C@H](C)CC[C@H]2/C=C(\\C)C(=O)O)[C@H](O)C1")
0.0
>>> class("CCOC(C)=O")
0.0
>>> class("Cc1ccccc1")
0.0
>>> class("CC(O)CO (stereo not given)")
0.0
>>> class("CCCCC/C=C\\C/C=C\\CCCCCCCC(=O)O")
0.0

Exercise: Any idea what this test logged for CC1=C(/C=C/C(C)=C/C=C/C(C)=C/CO)C(C)(C)CCC1 ?
Solution: 1.0

Exercise: Please let me know the test result on file for Nc1ccn([C@H]2CS[C@@H](CO)O2)c(=O)n1 .
Solution: 0.0

Exercise: Which outcome was entered for the compound O=S(=O)(O)O in this test?
Solution: 0.0

Exercise: For this compound, state the assay outcome: IC(I)I
Solution: 0.0

Exercise: What classification did CCCCCCCC/C=C\CCCCCCCC(=O)O end up with in this test?
Solution: 0.0

---

Test system: NIH3T3
protocol-description: qHTS assay to identify novel small-molecules to repurpose for Merkel cell carcinoma treatment (AID 1296009); also: nearly all actives have a fitted effect of over 60% in size
assay-conditions: MCC and control cell lines, CellTiter-Glo viability, 72 h; at 44.8 µM (top of the series) unless noted
Inconclusive results are not listed. Calls of active or inactive are those of the source. Calls follow the shape of the dose curve; as a rule, active = well fitted inhibition curve with a large enough effect; inconclusive = small, poorly fitted or top-dose-only effect; inactive = flat fitted curve, though single readings scatter.
reported-property: outcome

Observe how each entry below is paired with its result.
>>> recorded_measurement("CCCC(N[C@@H](C)C(=O)N1[C@H](C(=O)O)C[C@@H]2CCCC[C@@H]21)C(=O)OCC (some centres not stated)")
"inactive"
>>> recorded_measurement("O=C(NN1CCCCC1)c1nn(-c2ccc(Cl)cc2Cl)c(-c2ccc(C#Cc3ccc(C(F)(F)F)cc3)s2)c1CNS(=O)(=O)N1CCCC1")
"inactive"
>>> recorded_measurement("CC(=O)NC(CCC(=O)O)C(=O)NCCc1ccc(O)cc1 (configuration not stated)")
"inactive"
>>> recorded_measurement("C[C@@H]1C[C@H](O[C@@H]2O[C@H](CO[C@@H]3OC[C@](O)(CO)[C@H]3O)[C@@H](O)[C@H](O)[C@H]2O)CC(C)(C)[C@H]1/C=C/[C@@H](C)O")
"inactive [at 17.4 µM]"
>>> recorded_measurement("CC(=O)OC[C@]1(O)[C@H]2[C@H](OC(=O)CC(C)C)OC=C(CO[C@@H]3O[C@H](CO)[C@@H](O)[C@H](O)[C@H]3O)[C@H]2C[C@@H]1O")
"inactive [at 17.4 µM]"

Exercise: Consider the compound FC(F)(F)c1cc(C(F)(F)F)c2ccc3nc(-c4nnco4)cn3c2n1 and give its measured outcome.
Solution: inactive

Exercise: What outcome value was documented for this compound, C=CCc1ccc(O[C@@H]2O[C@H](CO)[C@@H](O)[C@H](O)[C@H]2O)c(OC)c1 ?
Solution: inactive

Exercise: Field request: outcome | item: CC(=O)OC(CSC1CCC(=O)OC(C)CCC(=O)C1)C(=O)O (configuration not stated)
Solution: inactive

Exercise: Quick check: outcome of C=C(C)C1CC2(CO)C(=CC1=O)CCC(O)C2C (configuration not stated) ?
Solution: inactive

Exercise: // returns reported outcome for input O=C1Nc2ccc(O)cc2O[C@H]1O[C@@H]1O[C@H](CO)[C@@H](O)[C@H](O)[C@H]1O
Solution: inactive

Exercise: Given the entry C[C@@H]1C[C@H](O)/C=C/[C@H](O)[C@@H](O)CC(=O)O1 , report its measured outcome.
Solution: inactive

Exercise: Reported outcome, compound CC(O)C(O)/C=C/C=C/C(=O)O[C@@H]1C=C2COC(=O)[C@]2(O)[C@@]2(C)CCCC(C)(C)C12 (some centres not stated) : ____
Solution: inactive [at 17.4 µM]

Exercise: Looking for the measured outcome of O=S(=O)(Nc1ccc(C(O)(C(F)(F)F)C(F)(F)F)cc1)c1cccs1 , can you help?
Solution: inactive

Exercise: What does the data say about its outcome? Entry: CC(=O)OC1C(O)C(C)=C(CCC(C)CC(=O)O)C2(C)CCCC(C)(C)C12 (configuration not stated)
Solution: inactive

Exercise: # get_value(readout='outcome', item= CC(=O)OC1C(O)CC(O[C@@H]2O[C@H](CO)[C@@H](O)[C@H](O)[C@H]2O)C2CCC3C(=O)OC(c4ccoc4)CC3(C)C21 (some centres not stated) )
Solution: inactive [at 17.4 µM]

Exercise: What value of outcome has been recorded for this entry: CC(=O)NCCCCn1c2c(c3ccccc31)C(=O)NCC2
Solution: inactive

---

System: HACAT
protocol-description: qHTS assay to identify novel small-molecules to repurpose for Merkel cell carcinoma treatment (AID 1296009); also: nearly all actives have a fitted effect of over 60% in size
assay-conditions: MCC and control cell lines, CellTiter-Glo viability, 72 h; at 44.8 µM (top of the series) unless noted
Results filed as inconclusive are left out. The source made the active and inactive calls. Calls come from the whole dose curve; as a rule, active = well fitted inhibition curve with a large enough effect; inconclusive = small, poorly fitted or top-dose-only effect; inactive = flat fitted curve, though single readings scatter. Where a SMILES comes first, the peptide text is derived from it. [ ]: non-standard residue; d: D form. 2Abz = Nc1ccccc1C(=O)O
reported-property: outcome

>>> recorded_measurement("COC1C=C([C@@H]2CC=C3[C@@]4(C)C(CC[C@]32C)[C@@]2(C)C=CC(=O)C(C)(C)C2C[C@H]4OC(C)=O)C(=O)O1 (stereo not given in full)")
"inactive [at 17.4 µM]"
>>> recorded_measurement("O=C(/C=C/c1c(C(=O)O)[nH]c2cc(Cl)cc(Cl)c12)Nc1ccccc1")
"inactive"
>>> recorded_measurement("COc1ccccc1[C@@H]1C2=C(CC(C)(C)CC2=O)Nc2n[nH]c(C(F)(F)F)c21")
"inactive"
>>> recorded_measurement("O=C(/C=C/c1ccc(O)cc1)OC[C@]12O[C@H]1[C@@H](O)[C@@H]1C=CO[C@@H](O[C@@H]3O[C@H](CO)[C@@H](O)[C@H](O)[C@H]3O)[C@@H]12")
"inactive [at 17.4 µM]"
>>> recorded_measurement("CCC(C)C1NC(=O)C2CCCN2C(=O)C(C(C)C)NC(=O)c2ccccc2NC(=O)C(Cc2ccc(O)cc2)NC(=O)C(C)NC(=O)C(C(C)O)NC1=O (stereo not given) (cyclo([2Abz]VPITAY); configuration not given here)")
"inactive [at 17.4 µM]"
>>> recorded_measurement("O=C(O)c1cc(O[C@@H]2O[C@H](CO[C@@H]3OC[C@@H](O)[C@H](O)[C@H]3O)[C@@H](O)[C@H](O)[C@H]2O)c2ccccc2c1O")
"inactive [at 17.4 µM]"
>>> recorded_measurement("O=c1ccn(C2OC(CO)C(O)C2O)c(=O)[nH]1 (stereo not given)")
"inactive"
>>> recorded_measurement("Cc1cc(O)cc(Oc2cc(C)c(C(=O)O)c(O)c2)c1")
"inactive"

Could you now consider this next molecule?
Exercise: Which outcome is listed for CC(=O)NCCCCn1c2c(c3ccccc31)C(=O)NCC2 ?
Solution: inactive
